Reference source: patent US6323185

Molecular target: HIV-1 integrase wild-type (IN1-288) (HIV-1, UniProt P12497 P12497:1148-1435)
Experiment: inhibition; first activity column (headed strand transfer); other column 0.134
Details: G4
QUANTITY: IC50 (nM)
Answers are plain numbers, in nM.

For the binder GTGGGTGGTGGGTGGGT (ssDNA, PS at first and last linkages, capital T = C5-propynyl dU) [T30722] , give its reported IC50.
129
